biological target: Orexin/Hypocretin receptor type 1 (Homo sapiens); test: antagonists of human orexin 1 receptor (OX1R) (AID 485270); conditions: OX1R-expressing cells, FRET antagonist read-out; at 6.6 µM; active compounds read high;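 further: 0% = agonist challenge alone and 100% = reference antagonist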
Out of some 330,000 compounds screened, about 5,800 (1.8%) were called active. The full list was thinned out, with actives kept by preference.
observed_property: inhibition (%)
Kindly answer with a numeric value in %, unit omitted.

Answered examples (8):
CC(C)(C)OC(=O)C[C@@H]1C/C=C\C[C@@H](CC(=O)NCCO)C(=O)N[C@H](Cc2c[nH]c3ccccc23)COC1=O    3.99
CNc1ccc([N+](=O)[O-])cc1C(=O)O    17.5
CC1(C)CN(c2ccc(-c3ccnc4ncnn34)cc2)C1=O    41.3
CNc1ccc(NC(C)=O)cc1[N+](=O)[O-]    59.9
COc1ccccc1C(=O)NCC(=O)OCC(=O)NNC(=O)c1ccc(Br)cc1    2.31
O=C1c2ccccc2C(=O)c2c1cccc2N1CCN(CCO)CC1    56.4
Cc1noc(C)c1NC(=O)Nc1cccc2c1O[C@H](CN(C)C(=O)Nc1ccccc1)[C@@H](C)CN([C@H](C)CO)C2=O    6.95
CC(=O)c1ccc2c(c1)OCCOCCOc1ccc(C(C)=O)cc1OCCOCCO2    0.66

*Q* Determine from records and report inhibition for O=C(Nc1sc2c(c1-c1nc3ccccc3[nH]1)CCCC2)C1CC1
*A* 46.5

*Q* Determine from records and report inhibition for CC(=O)Nc1ccc(S(=O)(=O)N2CCN(c3ccc([N+](=O)[O-])c(NCCN4CCOCC4)c3)CC2)cc1
*A* 24.8

*Q* Determine from records and report inhibition for CC(OC(=O)c1ccc(Cl)cc1O)C(=O)NCCC1=CCCCC1 (stereo unspecified)
*A* 5.93

*Q* Determine from records and report inhibition for Oc1c(Cl)cc(Cl)c(Cl)c1Cc1c(O)c(Cl)cc(Cl)c1Cl
*A* 60.5

*Q* Determine from records and report inhibition for CCN(C(=O)COC(=O)c1sccc1C)c1c(N)n(Cc2ccccc2)c(=O)[nH]c1=O
*A* 21.4

====

target: Orexin/Hypocretin receptor type 1 (Homo sapiens); assay: antagonists of human orexin 1 receptor (OX1R) (AID 485270); conditions: OX1R-expressing cells, FRET antagonist read-out; at 6.6 µM;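 further: 0% = agonist challenge alone and 100% = reference antagonist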
In all, about 330,000 compounds went through this assay and about 5,800 (1.8%) were called active. Rule as the data show it: active = inhibition mostly above about 38% (no sharp cut-off); inactive = mostly below about 40%. Many of the other results were omitted from the sample, so actives are more common in it than they were.
One label from this list, please: active, inactive

Example entries and their recorded answers appear below.
CN(CCC1CCOCC1)Cc1cn[nH]c1-c1ccc(-c2ccccc2)cc1    inactive
O=C(Cn1cnc2cc([N+](=O)[O-])ccc2c1=O)NC(=O)NCc1ccccc1    inactive
O=C(c1ccco1)N1CCN(C(=O)C2CCCN(S(=O)(=O)c3cccc4nsnc34)C2)CC1 (configuration not stated)    active
CC(NCC(=O)Nc1ccccc1C(=O)NC1CC1)c1ccccc1Cl (configuration not stated)    active
O=C(Nc1ccccn1)C1CCN(S(=O)(=O)c2ccc3c(c2)OCCO3)CC1    inactive
CCCCOc1ccc(C(=O)NCC(=O)OCC(=O)c2c(N)n(C)c(=O)n(C)c2=O)cc1    inactive

Please turn your attention to the following entry.
*Q* Just curious, what result did O=C(COC(=O)c1ccccn1)NNC(=O)c1ccc([N+](=O)[O-])cc1 get here?
*A* active

====

molecular target: Orexin/Hypocretin receptor type 1 (Homo sapiens); test: antagonists of human orexin 1 receptor (OX1R) (AID 485270); conditions: OX1R-expressing cells, FRET antagonist read-out; at 6.6 µM;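 further: 0% = agonist challenge alone and 100% = reference antagonist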
Among all 330,000 compounds or so, about 5,800 (1.8%) were called active. Cut-off read from the data, not from the text of the source: active = inhibition mostly above about 38% (no sharp cut-off); inactive = mostly below about 40%. For the sample, actives were picked, then their nearest neighbours and some compounds at random.
One label from this list, please: 1 = active, -1 = inactive

Example entries and their recorded answers appear below.
O=C1c2ccccc2C(=O)c2c1cccc2N1CCN(C/C=C/c2ccccc2)CC1    -1
Cc1n[nH]c(=O)c2c(NC(=O)COC(=O)c3ncc(Cl)c(Cl)c3Cl)oc(C)c12    1

Please turn your attention to the following entry.
*Q* Just curious, what result did COc1cc(Cl)c(C)cc1NC(=O)CSc1nnc(-c2cccnc2)n1Cc1ccco1 get here?
*A* -1

====

target: Orexin/Hypocretin receptor type 1 (Homo sapiens) (UniProt O43613); test: antagonists of human orexin 1 receptor (OX1R) (AID 485270); conditions: OX1R-expressing cells, FRET antagonist read-out; at 6.6 µM; active compounds read high;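 further: 0% = agonist challenge alone and 100% = reference antagonist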
Sequence (O43613 whole entry, looked up): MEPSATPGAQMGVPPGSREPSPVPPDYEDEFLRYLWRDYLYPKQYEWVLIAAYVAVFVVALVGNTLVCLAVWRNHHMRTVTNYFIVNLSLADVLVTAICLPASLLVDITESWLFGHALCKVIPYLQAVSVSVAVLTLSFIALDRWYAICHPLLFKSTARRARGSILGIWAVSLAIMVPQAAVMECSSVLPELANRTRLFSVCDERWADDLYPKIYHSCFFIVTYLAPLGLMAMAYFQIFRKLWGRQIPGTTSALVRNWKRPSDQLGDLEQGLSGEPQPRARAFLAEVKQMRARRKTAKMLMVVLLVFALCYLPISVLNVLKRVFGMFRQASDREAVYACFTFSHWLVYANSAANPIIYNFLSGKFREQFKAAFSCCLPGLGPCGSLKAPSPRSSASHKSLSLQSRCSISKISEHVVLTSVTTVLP
About 5,800 (1.8%) of roughly 330,000 compounds were called active. Shown is part of a subset that was picked to be rich in actives.
Tag: 1 if measured inhibition is not below 8%, 0 if it is.

Example entries and their recorded answers appear below.
CC(C)(C)NC(=O)Cn1cnc2cc([N+](=O)[O-])ccc2c1=O    1
COc1ccc2sc(-c3ccc(S(C)(=O)=O)cc3)c(C#Cc3cncn3C)c2c1    0
COc1ccccc1NC(=O)C1CCCN1S(=O)(=O)c1ccc(Cl)cc1 (stereo not given)    1
O=C(N/N=C/c1cc(Cl)cc([N+](=O)[O-])c1O)C(O)(c1ccccc1)c1ccccc1    1
CC(C)CC1(C)NC(=O)N(CC(=O)Nc2ccc3c(c2)OCCO3)C1=O (stereo not given)    0

*Q* Quick check, inhibition >= 8%? COc1cc(OC)cc(C(=O)NC(C(=O)N2CCC2)C(C)C)c1 (stereo not given)
*A* 0

*Q* Quick check, inhibition >= 8%? Cc1ccc(S(=O)(=O)N(C)c2ccc(OCC(=O)OCc3ccc(C#N)cc3)cc2)cc1
*A* 0

*Q* Quick check, inhibition >= 8%? Cc1nc(C)c(-c2nnc(-c3cccc(S(=O)(=O)N(C)C)c3)o2)cc1C(=O)NN
*A* 0

*Q* Quick check, inhibition >= 8%? O=C(NCc1ccco1)C1CCCN(S(=O)(=O)c2cnc[nH]2)C1 (stereo not given)
*A* 0
